From: PubChem BioAssay (Tox21)

test-system: Cytochrome P450 2C19 (Homo sapiens) (UniProt P33261)
Sequence (P33261 whole entry, looked up): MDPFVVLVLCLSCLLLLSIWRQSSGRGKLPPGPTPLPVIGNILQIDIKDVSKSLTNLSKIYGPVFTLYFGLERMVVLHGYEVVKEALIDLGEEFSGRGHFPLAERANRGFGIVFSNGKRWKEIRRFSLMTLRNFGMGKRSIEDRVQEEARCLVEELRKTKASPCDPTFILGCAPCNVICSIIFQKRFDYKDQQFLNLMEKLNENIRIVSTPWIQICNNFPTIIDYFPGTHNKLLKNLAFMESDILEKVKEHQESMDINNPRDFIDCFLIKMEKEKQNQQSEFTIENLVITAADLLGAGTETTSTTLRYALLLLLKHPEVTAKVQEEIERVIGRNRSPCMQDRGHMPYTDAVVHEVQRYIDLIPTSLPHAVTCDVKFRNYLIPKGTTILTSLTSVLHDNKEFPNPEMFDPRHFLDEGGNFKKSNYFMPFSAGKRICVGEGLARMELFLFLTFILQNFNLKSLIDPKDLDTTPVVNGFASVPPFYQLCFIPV
experiment-summary: Cytochrome P450 Family 2 Subfamily C Member 19 (CYP2C19) small molecule antagonists: luciferase reporter qHTS assay (AID 1671197); also: nearly all actives have a fitted effect of over 65% in size; also: potency is read from the fitted curve at half-maximal effect
recorded-conditions: P450-Glo CYP2C19 enzyme, luciferin luminescence, 1 h; series mostly up to 115 µM
Results filed as inconclusive are left out. Active and inactive are the calls of the source. Calls follow the shape of the dose curve; as a rule, active = well fitted inhibition curve with a large enough effect in the repeat runs; inconclusive = weak or mixed curves; inactive = no such curve, though single readings can be large or run the other way.
reported-metric: Potency

Answered cases to consult:
smiles-code: COc1c2occc2c(OC)c2c(=O)cc(C)oc12
test-system: Cytochrome P450 2C19 (Homo sapiens) (UniProt P33261)
result: 3.47 µM (active)

smiles-code: CC(CO)(CO)CO
test-system: Cytochrome P450 2C19 (Homo sapiens) (UniProt P33261)
result: inactive

smiles-code: C=Cc1ccc(C(C)(C)C)cc1
test-system: Cytochrome P450 2C19 (Homo sapiens) (UniProt P33261)
result: inactive

smiles-code: Nc1nnnn1-c1ccccc1
test-system: Cytochrome P450 2C19 (Homo sapiens) (UniProt P33261)
result: inactive

Measured Potency for this entry CCCCCCCCCCCCCBr on Cytochrome P450 2C19 (Homo sapiens) (UniProt P33261): 70.8 µM (active)

// compound CC(C)=CCC/C(C)=C/COC=O , assay Cytochrome P450 2C19 (Homo sapiens) (UniProt P33261), Potency value: inactive

Test item CCCCOCCOC(=O)COc1ccc(Cl)cc1Cl ; Cytochrome P450 2C19 (Homo sapiens) (UniProt P33261); reported Potency was 79.6 µM (active)

Sample O=C(CN1CCNCC1)NC1CCCCC1 , system: Cytochrome P450 2C19 (Homo sapiens) (UniProt P33261). Its Potency is inactive
